Reference source: patent US20240246905A1

System: various Staphylococcus aureus strains
measurement_description: Disc diffusion, Staphylococcus aureus strain study
Assay type: cell-based
details: Staphylococcus aureus, strain EOE 23; 500 μg/mL
Recorded zone of inhibition at 500 µg/mL, one value per entry.

smiles_data	unit_annotation	zone of inhibition at 500 µg/mL
[C-]#[N+]/C=C/c1ccc(NC(C)=O)cc1/C=C/c1ccccc1	mm	26
[C-]#[N+]/C=C/c1ccc(O)cc1/C=C/c1ccccc1	mm	32
[C-]#[N+]C=Cc1cc(Br)ccc1O	mm	22
[C-]#[N+]C=Cc1ccc(O)c(Br)c1	mm	22
[C-]#[N+]C=Cc1ccc(O)cc1	mm	16
